Please go through the items and note down their binding relative to negative control mIgG2.
target: T1, C3d (UniProt P01024 1002-1303, limits assumed); assay: binding screen of Example 5; method and unit not stated
T1 construct: domain: C3d
T1 sequence (P01024 1002-1303 limits assumed): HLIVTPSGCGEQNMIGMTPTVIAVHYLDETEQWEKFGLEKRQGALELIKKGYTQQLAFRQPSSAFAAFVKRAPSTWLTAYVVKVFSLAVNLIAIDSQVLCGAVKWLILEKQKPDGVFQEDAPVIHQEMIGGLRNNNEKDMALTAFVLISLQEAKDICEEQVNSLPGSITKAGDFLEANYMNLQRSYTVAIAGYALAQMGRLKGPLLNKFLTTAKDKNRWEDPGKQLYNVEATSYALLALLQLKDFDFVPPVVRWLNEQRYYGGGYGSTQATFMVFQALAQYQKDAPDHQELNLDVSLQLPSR
Numbers only.

Some solved entries appear below for comparison.
binder	quantitative.readout
antibody 63A3 (antibody, V domains shown, Mouse hybridoma antibody) VH: DVQLQESGPGLVKPSQSLSLTCSVTGYSITSGYYWNWIRQFPGNKLEWMGYIRYDGSNNYNPSLKNRISITRDTSKNQVFLKLNSVTPEDTATYYCARHYGYDGGAFDFWGQGTTLTVSS VL: DIQMTQSPASLSASVGETVTITCRTSENIYNYLVWYQQKQGKSPQLLVYNAKTLEEGVPSRFSGSGSGTQFSLKVNSLQPEDFGSYYCQHHYGTPFTFGSGTKLEIK	0.01
antibody 38G10 (antibody, V domains shown, Mouse hybridoma antibody; Parent of Hz38G10; also called parental 38G10 antibody) VH: EVQLQQSGPELVKPGDSVKMSCKASGYTFTDFYMDWVKQSHGKSLEWIGYIYPHNGGTTYNQNFTGKATLTVDKSSNTAYMELHSLTSEDSAVYYCARRGGFDFDYWGQGTTLTVSS VL: NIVMTQSPKSMSLSVGERVTLRCKASENVDTYVSWYQQKPEQSPKLLIYGASNRYTGVPDRFTGSGSATEFTLTISSVQAEDLVGYHCGQSHSYPLTFGAGTKLELK	0
antibody 28C3 (antibody, V domains shown, Mouse hybridoma antibody) VH: QVQLQQSGPELVKPGASVKISCKASGYAFNSCWMNWVKQRPGKGLEWIGRIYPGDGDTNYNGKFKGKATLTADKSSTTAYMQLSSLTSEDSAVYFCAREGRNYGYEDYWGQGTTLTVSS VL: DIVLTQSPASLAVSLGQRATISCKASQSVDYDGDSYMNWYQQKPGQPPKLLIYAASDLESGIPARFSGSGSGTDFTLNIHPVEEEDAATYYCQQANEDPRTFGGGTKLEIK	0.01

// query binding relative to negative control mIgG2 value for entry antibody 62F2 (antibody, V domains shown, Mouse hybridoma antibody) VH: DVQLQESGPDLVKPSQSLSLTCTVTGYSITSGYSLHWIRQFPGNKLEWMGYIHYSGSTNYNPSLKSRISITRDTSKNQFFLKLNSVTSEDTATYHCARAWDYLDYWGQGTTLTVSS VL: DIQMTQSPASLSASVGETVTITCRASENIYSQLAWYQQKQGKSPQLLVYDAKTLAEGVPSRFSGSGSDTQFSLKIISLQPEDFGRYYCHHHFGILYTFGGGTKLEMK
// result 0.01
